# assay target: Adenosine receptor A2b (Homo sapiens) (UniProt P29275)
# Sequence (whole entry): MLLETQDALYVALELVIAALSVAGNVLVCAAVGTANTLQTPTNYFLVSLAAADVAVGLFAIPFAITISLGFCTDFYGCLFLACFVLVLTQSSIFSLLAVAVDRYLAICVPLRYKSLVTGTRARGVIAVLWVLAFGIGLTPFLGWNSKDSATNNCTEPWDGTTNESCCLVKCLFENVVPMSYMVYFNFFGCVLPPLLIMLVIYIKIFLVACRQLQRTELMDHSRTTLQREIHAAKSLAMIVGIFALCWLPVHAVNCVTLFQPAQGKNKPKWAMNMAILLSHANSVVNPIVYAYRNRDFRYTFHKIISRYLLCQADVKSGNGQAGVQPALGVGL
# test protocol: Displacement of [3H]DPCPX from human adenosine A2B receptor expressed in HEK293 cell membranes at 1 uM incubated for 30 mins by scintillation counting method
# applied conditions: Cell membrane
assay metric: inhibition (%)
Reply with just the number (in %).

Solved cases below.
compound	inhibition / %
CC1=C(C(=O)OC(C)(C)C)C(c2ccoc2)NC(=O)N1C (racemic)	16
CC1=C(C(=O)OC(C)(C)C)C(c2ccco2)NC(=S)N1 (racemic)	9
CCNC(=O)C1=C(C)NC(=O)NC1c1cccs1 (racemic)	1
CCC(CC)OC(=O)C1=C(C)NC(=O)NC1c1ccoc1 (racemic)	28
COC(=O)C1=C(C)NC(=S)NC1c1ccsc1 (racemic)	38

[Q] Identify inhibition associated with the compound CCCOC(=O)C1=C(C)NC(=S)NC1c1cccs1 (racemic)
[A] 3

[Q] Identify inhibition associated with the compound COC(=O)C1=C(C)NC(=S)NC1c1cccs1 (racemic)
[A] 10

[Q] Identify inhibition associated with the compound CCCOC(=O)C1=C(C)N(C)C(=O)NC1c1cccs1 (racemic)
[A] 1

[Q] Identify inhibition associated with the compound CCNC(=O)C1=C(C)NC(=O)NC1c1ccsc1 (racemic)
[A] 1

[Q] Identify inhibition associated with the compound CC(=O)C1=C(C)NC(=O)NC1c1cccs1 (racemic)
[A] 2

[Q] Identify inhibition associated with the compound CC1=C(C(=O)OCC(C)C)C(c2cccs2)NC(=O)N1C (racemic)
[A] 2

[Q] Identify inhibition associated with the compound CCOP(=O)(OCC)C1=C(C)NC(=O)NC1c1ccoc1 (racemic)
[A] 3

[Q] Identify inhibition associated with the compound CC1=C(C(=O)NC(C)C)C(c2ccoc2)NC(=O)N1 (racemic)
[A] 3

[Q] Identify inhibition associated with the compound CCN(CC)C(=O)C1=C(C)NC(=O)NC1c1cccs1 (racemic)
[A] 22

[Q] Identify inhibition associated with the compound CCCC(=O)C1=C(C)NC(=O)NC1c1ccoc1 (racemic)
[A] 22

[Q] Identify inhibition associated with the compound CCOP(=O)(OCC)C1=C(C)NC(=O)NC1c1ccsc1 (racemic)
[A] 1

[Q] Identify inhibition associated with the compound CC1=C(C(=O)OCC(C)C)C(c2ccsc2)NC(=S)N1 (racemic)
[A] 15

[Q] Identify inhibition associated with the compound CC1=C(C(=O)SC(C)C)C(c2cccs2)NC(=O)N1 (racemic)
[A] 1

[Q] Identify inhibition associated with the compound CC(=O)C1=C(C)NC(=O)NC1c1ccsc1 (racemic)
[A] 24

[Q] Identify inhibition associated with the compound CC1=C(C(=O)NC(C)C)C(c2ccco2)NC(=O)N1 (racemic)
[A] 2

[Q] Identify inhibition associated with the compound CC1=C(C(=O)OC(C)(C)C)C(c2cccs2)NC(=O)N1C (racemic)
[A] 24

[Q] Identify inhibition associated with the compound CC1=C(C(N)=O)C(c2ccoc2)NC(=O)N1 (racemic)
[A] 6

Entry source: ChEMBL document CHEMBL4765483
